study target: COX-2 (Mus musculus (Mouse), UniProt Q05769)
Sequence (Q05769 18-604): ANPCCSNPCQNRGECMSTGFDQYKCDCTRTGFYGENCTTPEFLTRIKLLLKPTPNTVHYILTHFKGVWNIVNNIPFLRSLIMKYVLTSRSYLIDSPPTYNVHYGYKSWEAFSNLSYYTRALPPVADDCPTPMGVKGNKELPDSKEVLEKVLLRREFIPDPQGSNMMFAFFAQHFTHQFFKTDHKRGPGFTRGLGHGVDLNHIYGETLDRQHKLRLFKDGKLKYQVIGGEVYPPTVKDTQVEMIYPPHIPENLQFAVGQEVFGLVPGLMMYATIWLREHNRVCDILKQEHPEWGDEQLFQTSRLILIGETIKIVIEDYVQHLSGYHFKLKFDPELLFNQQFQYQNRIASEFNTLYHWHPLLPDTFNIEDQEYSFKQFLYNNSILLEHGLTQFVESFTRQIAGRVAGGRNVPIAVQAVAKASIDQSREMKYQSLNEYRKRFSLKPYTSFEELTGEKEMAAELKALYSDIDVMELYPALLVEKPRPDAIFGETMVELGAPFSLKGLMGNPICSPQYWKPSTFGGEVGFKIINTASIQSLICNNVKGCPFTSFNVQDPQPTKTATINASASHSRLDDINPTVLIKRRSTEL
protocol text: Cell-based COX-2 assay (PGE2 in LPS/IFN-g stimulated RAW264.7 cells)
experimental conditions: RAW264.7 murine macrophages, LPS + IFN-g, PGE2 readout
Below, each of the molecules is paired with its reported IC50 value.
Kindly provide the numeric value in µM only, without the unit symbol.

Observe how each entry below is paired with its result.
| molecule | IC50 / µM |
| --- | --- |
| NS(=O)(=O)c1ccc(-n2nc(COCCCCCCC[N+]34CC[S][Re]35(=[O])[S]CC[N]5CC4)cc2-c2ccc(F)cc2)cc1 (stereo not drawn) | 0.21 |
| Cc1ccc(-c2cc(CCCCCCCCCN3CC[S][Re]4(=[O])[S]CC[N]4CC3)nn2-c2ccc(S(N)(=O)=O)cc2)cc1 (stereo not drawn) | 0.2 |

response.value for NS(=O)(=O)c1ccc(-n2nc(CCCCCN3CC[S][Re]4(=[O])[S]CC[N]4CC3)cc2-c2ccc(F)cc2)cc1 (stereo not drawn) (field: IC50) = 0.66
